Recorded values, source ChEMBL document CHEMBL1961873.

Recorded inhibition values for a group of compounds are listed next.
biological target: Mitogen-activated protein kinase 14 (Homo sapiens) (UniProt Q16539); conditions: at 0.1 µM;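 further: values are mean percent inhibition of p38α kinase from the GSK PKIS published kinase inhibitor set screen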
Sequence (Q16539 whole entry): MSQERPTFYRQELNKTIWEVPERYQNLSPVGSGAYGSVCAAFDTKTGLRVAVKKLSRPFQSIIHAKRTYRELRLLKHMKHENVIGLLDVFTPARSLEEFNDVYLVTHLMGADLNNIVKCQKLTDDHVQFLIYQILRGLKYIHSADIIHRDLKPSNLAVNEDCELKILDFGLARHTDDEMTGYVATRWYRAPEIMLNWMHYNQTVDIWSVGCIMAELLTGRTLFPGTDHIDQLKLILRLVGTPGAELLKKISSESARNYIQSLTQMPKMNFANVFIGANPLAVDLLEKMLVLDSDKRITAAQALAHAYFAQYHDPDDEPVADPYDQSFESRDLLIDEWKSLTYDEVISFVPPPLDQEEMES
# value in %; strip the unit string

CCN(CC)Cc1ccc(Nc2nccc(-c3cnn4ncccc34)n2)cc1 :: 6.95

Notebook: pull reported inhibition for Mitogen-activated protein kinase 14 (Homo sapiens) (UniProt Q16539), entry Fc1ccc(-c2c(-c3ccncc3)nc3n2CCS3)cc1
1.13

Notebook: pull reported inhibition for Mitogen-activated protein kinase 14 (Homo sapiens) (UniProt Q16539), entry CN(C)c1ccc2c(c1)/C(=C/Nc1ccc(S(N)(=O)=O)cc1)C(=O)N2
1.18

Notebook: pull reported inhibition for Mitogen-activated protein kinase 14 (Homo sapiens) (UniProt Q16539), entry O=C1Nc2ccccc2/C1=C/Nc1ccc(-n2cncn2)cc1
2.12

Notebook: pull reported inhibition for Mitogen-activated protein kinase 14 (Homo sapiens) (UniProt Q16539), entry NC(=O)c1cc(-c2ccc(F)cc2)cc(-c2ccncc2)c1N
6.13

Notebook: pull reported inhibition for Mitogen-activated protein kinase 14 (Homo sapiens) (UniProt Q16539), entry O=C(Nc1ccc(Oc2ccc3[nH]c(NC(=O)c4ccccc4)nc3c2)cc1)Nc1cc(C(F)(F)F)ccc1F
11.1

Notebook: pull reported inhibition for Mitogen-activated protein kinase 14 (Homo sapiens) (UniProt Q16539), entry COc1cc(Nc2ncc3c(C)nc(-c4cccc(Oc5ccccc5)c4)n3n2)cc(OC)c1OC
0.66

Notebook: pull reported inhibition for Mitogen-activated protein kinase 14 (Homo sapiens) (UniProt Q16539), entry FC(F)(F)c1cccc(Nc2nccc(-c3cnn4nc(-c5ccccc5)ccc34)n2)c1
3.54

Notebook: pull reported inhibition for Mitogen-activated protein kinase 14 (Homo sapiens) (UniProt Q16539), entry COc1cc2ncn(-c3cc(OCc4ccccc4C(F)(F)F)c(C(C)=O)s3)c2cc1OC
4.86

Notebook: pull reported inhibition for Mitogen-activated protein kinase 14 (Homo sapiens) (UniProt Q16539), entry COc1ccc2ncn(-c3cc(O[C@H](C)c4ccccc4Cl)c(C(N)=O)s3)c2c1
6.99

Notebook: pull reported inhibition for Mitogen-activated protein kinase 14 (Homo sapiens) (UniProt Q16539), entry COc1cc2ncn(-c3cc(OCc4cccs4)c(C(N)=O)s3)c2cc1OC
16.9

Notebook: pull reported inhibition for Mitogen-activated protein kinase 14 (Homo sapiens) (UniProt Q16539), entry CCS(=O)(=O)c1ccc(OC)c(Nc2ncc(-c3cccc(-c4ccccc4F)c3)o2)c1
5.17

Notebook: pull reported inhibition for Mitogen-activated protein kinase 14 (Homo sapiens) (UniProt Q16539), entry O=C(Nc1n[nH]c2nc(-c3ccc(O)cc3)c(Br)cc12)C1CC1
6.42

====

system: Epidermal growth factor receptor (Homo sapiens), P00533 [T790M]; details: at 0.1 µM
Sequence (P00533 whole entry T790M): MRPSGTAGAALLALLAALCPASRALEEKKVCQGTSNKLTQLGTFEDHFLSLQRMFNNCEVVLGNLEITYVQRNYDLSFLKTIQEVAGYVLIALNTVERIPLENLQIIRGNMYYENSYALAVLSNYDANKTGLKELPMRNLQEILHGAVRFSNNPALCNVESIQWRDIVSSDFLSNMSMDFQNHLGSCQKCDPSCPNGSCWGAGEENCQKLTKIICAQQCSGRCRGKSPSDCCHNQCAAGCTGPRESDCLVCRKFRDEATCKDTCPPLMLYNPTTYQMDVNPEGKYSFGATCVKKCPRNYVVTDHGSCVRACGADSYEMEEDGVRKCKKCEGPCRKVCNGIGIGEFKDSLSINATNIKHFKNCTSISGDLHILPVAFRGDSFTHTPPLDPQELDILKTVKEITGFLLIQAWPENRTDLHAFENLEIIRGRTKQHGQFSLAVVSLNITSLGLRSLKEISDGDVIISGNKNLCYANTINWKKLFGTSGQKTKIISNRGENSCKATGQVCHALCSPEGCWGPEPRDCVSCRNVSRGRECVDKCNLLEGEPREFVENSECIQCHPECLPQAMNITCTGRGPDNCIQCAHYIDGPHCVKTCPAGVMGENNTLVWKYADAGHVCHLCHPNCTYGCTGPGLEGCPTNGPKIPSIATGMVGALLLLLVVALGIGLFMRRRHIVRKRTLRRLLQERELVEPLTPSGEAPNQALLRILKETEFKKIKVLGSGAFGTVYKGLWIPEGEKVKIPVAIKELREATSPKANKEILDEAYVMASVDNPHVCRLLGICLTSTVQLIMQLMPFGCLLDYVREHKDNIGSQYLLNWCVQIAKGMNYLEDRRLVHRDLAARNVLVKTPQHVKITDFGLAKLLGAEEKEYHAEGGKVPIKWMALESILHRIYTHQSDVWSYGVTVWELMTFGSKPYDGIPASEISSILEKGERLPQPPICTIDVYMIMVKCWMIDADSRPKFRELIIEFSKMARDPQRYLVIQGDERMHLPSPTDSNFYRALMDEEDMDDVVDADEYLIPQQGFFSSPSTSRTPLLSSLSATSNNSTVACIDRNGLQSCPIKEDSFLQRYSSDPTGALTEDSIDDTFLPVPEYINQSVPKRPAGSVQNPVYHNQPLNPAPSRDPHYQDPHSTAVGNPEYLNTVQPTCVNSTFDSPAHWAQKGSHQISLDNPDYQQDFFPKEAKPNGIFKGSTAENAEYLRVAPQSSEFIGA
quantity.measured: inhibition (%)
# value in %; strip the unit string

Study these solved cases before continuing.
CCc1cccc(CC)c1/C=C/c1cncc(C(=O)NC)c1 :: 2.4
O=C(NCC1CC1)c1ccc(-c2cccc(C(=O)NC3CC3)c2)cc1 :: 0.88

Notebook: pull reported inhibition for Epidermal growth factor receptor (Homo sapiens), P00533 [T790M], entry COc1ccc(C2=C(N3CCc4ccccc43)C(=O)NC2=O)cc1
3.62

Notebook: pull reported inhibition for Epidermal growth factor receptor (Homo sapiens), P00533 [T790M], entry O=C(Nc1n[nH]c2cc(-c3cc(F)ccc3F)ccc12)C1CC1
0.87

Notebook: pull reported inhibition for Epidermal growth factor receptor (Homo sapiens), P00533 [T790M], entry NC(=O)c1cc(-c2ccc(F)cc2)cc(-c2ccncc2)c1N
1.23

Notebook: pull reported inhibition for Epidermal growth factor receptor (Homo sapiens), P00533 [T790M], entry Fc1ccc(-c2nc3n(c2-c2ccncc2)CCS3)cc1
1.65

Notebook: pull reported inhibition for Epidermal growth factor receptor (Homo sapiens), P00533 [T790M], entry Cc1ccc(NC(=O)c2ccoc2)cc1-c1ccc(C(=O)NCC2CC2)cc1
1.63

Notebook: pull reported inhibition for Epidermal growth factor receptor (Homo sapiens), P00533 [T790M], entry O=C(Nc1ccc(Oc2ccc3[nH]c(NC(=O)c4ccccc4)nc3c2)cc1)Nc1cc(C(F)(F)F)ccc1F
2.22

Notebook: pull reported inhibition for Epidermal growth factor receptor (Homo sapiens), P00533 [T790M], entry CCc1ccc(Oc2nccc(-c3c(-c4ccc(F)cc4)ncn3C3CCNCC3)n2)cc1
0.57

Notebook: pull reported inhibition for Epidermal growth factor receptor (Homo sapiens), P00533 [T790M], entry Cc1nnc(-c2ccc(C)c(-c3ccc(C(=O)NCc4ccc(Cl)cc4)cc3)c2)o1
0.7

Notebook: pull reported inhibition for Epidermal growth factor receptor (Homo sapiens), P00533 [T790M], entry CCS(=O)(=O)c1ccc(OC)c(Nc2ncc(-c3cccc(-c4ccccc4F)c3)o2)c1
-1.94

Notebook: pull reported inhibition for Epidermal growth factor receptor (Homo sapiens), P00533 [T790M], entry NS(=O)(=O)c1ccc(N/N=C2\C(=O)Nc3ccc(C(=O)NCCCn4ccnc4)cc32)cc1
2.53

Notebook: pull reported inhibition for Epidermal growth factor receptor (Homo sapiens), P00533 [T790M], entry COc1cc2ncn(-c3cc(OCCc4ccccc4)c(C(N)=O)s3)c2cc1OC
0.19

Notebook: pull reported inhibition for Epidermal growth factor receptor (Homo sapiens), P00533 [T790M], entry Fc1ccc(-c2ncn(C3CCNCC3)c2-c2ccnc(Oc3ccc4c(c3)OCO4)n2)cc1
2.39

Notebook: pull reported inhibition for Epidermal growth factor receptor (Homo sapiens), P00533 [T790M], entry C#Cc1cccc(Nc2ncnc3ccc(OCCCCNCCS(C)(=O)=O)cc23)c1
3.8
